# System: KRAS patient-derived spheroids with HUVEC/MSC, viability;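 note: compound exposure lasted seven days before readout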
# PROTOCOL_DESCRIPTION: Anticancer human tumor 519858-162-T-J1-PDC patient-derived colon adenocarcinoma cell line growth inhibition [KRAS2]
# CONDITION_INFO: curve of first compound; second compound 0.316 µM
pIC50: −log10 of the molar value.
PROPERTY_MEASURED: pIC50

Reported pIC50 ( CC1(C)CCC(CN2CCN(c3ccc(C(=O)NS(=O)(=O)c4ccc(NCC5CCOCC5)c([N+](=O)[O-])c4)c(Oc4cnc5[nH]ccc5c4)c3)CC2)=C(c2ccc(Cl)cc2)C1 + COc1cc2nc(C)nc(NC(C)c3cc(N)cc(C(F)(F)F)c3)c2cc1OC1CCOC1 ) = < 5.00

Please fill in: pIC50 reported for CC(C)NCC(C(=O)N1CCN(c2ncnc3c2C(C)CC3O)CC1)c1ccc(Cl)cc1 (stereo not given) + CNCc1ccccc1-c1csc(C(C)Nc2nc(C)nc3cc(OC)c(OC)cc23)c1 = < 5.00

pIC50 measured on CC(C)n1nc(-c2ccc3oc(N)nc3c2)c2c(N)ncnc21 + CNCc1ccccc1-c1csc(C(C)Nc2nc(C)nc3cc(OC)c(OC)cc23)c1 = < 7.00

The compound listed as CCN1CCN(Cc2ccc(Nc3ncc(F)c(-c4cc(F)c5nc(C)n(C(C)C)c5c4)n3)nc2)CC1 + C=CC(=O)N1CCN(c2nc(=O)n(-c3c(C)ccnc3C(C)C)c3nc(-c4c(O)cccc4F)c(F)cc23)C(C)C1 shows pIC50 equal to < 6.00

Quick note, pIC50 for Cn1nccc1Nc1nccc(-c2cc3c(s2)C(C)(C)N(CCN2CCOCC2)C3=O)n1 + COc1cc2nc(C)nc(NC(C)c3cc(N)cc(C(F)(F)F)c3)c2cc1OC1CCOC1 landed at 5.66
